Target: Cyr61 (Homo sapiens, UniProt O00622)
Construct: Cyr61 protein (Mammalian, C-Fc)
Sequence (O00622 25-381): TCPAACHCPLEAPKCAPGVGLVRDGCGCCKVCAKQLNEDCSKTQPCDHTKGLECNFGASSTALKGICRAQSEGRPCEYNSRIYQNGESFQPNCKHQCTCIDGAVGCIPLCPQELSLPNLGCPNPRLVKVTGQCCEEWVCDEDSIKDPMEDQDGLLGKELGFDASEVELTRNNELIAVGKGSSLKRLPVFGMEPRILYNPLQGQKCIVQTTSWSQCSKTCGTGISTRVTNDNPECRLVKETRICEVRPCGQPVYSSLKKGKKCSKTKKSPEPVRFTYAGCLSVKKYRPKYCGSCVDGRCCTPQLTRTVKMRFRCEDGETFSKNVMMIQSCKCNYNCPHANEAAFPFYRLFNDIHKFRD
Experiment: Microscale thermophoresis with RED-NHS labelled recombinant Cyr61; supported by DARTS and CETSA in HeLa cells
ENDPOINT NAME: pKd
pKd field: float, defined as -log10 of concentration (mol/L).

Request the reported pKd associated with CC(=O)O[C@@H]1C[C@@H](C)[C@](O)(CCc2ccoc2)[C@@]2(C)CCCC(C)(C)[C@H]12 [RTF, Rotundifuran] 5.42
